experimental-target: T1, REF6 ZnF1-4 WT (Arabidopsis thaliana, UniProt Q9STM3 1223-1360)
T1 sequence: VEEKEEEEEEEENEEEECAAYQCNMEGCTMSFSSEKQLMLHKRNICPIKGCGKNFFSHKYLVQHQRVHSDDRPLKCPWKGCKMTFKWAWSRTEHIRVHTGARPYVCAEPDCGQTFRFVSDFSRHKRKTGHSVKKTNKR
assay-protocol: MST; MST: 20 mM HEPES pH 7.3, 150 mM NaCl, 0.2 mM TCEP, 0.5% CA-630, 25 C; EMSA: 30 uM protein, 10 uM dsDNA, 20 mM Tris pH 8.0, 100 mM NaCl, 2.5 mM MgCl2, 0.1% CA-630, 10% glycerol, 1 uM ZnSO4, 1 mM DTT, 4 C
details: protein: recombinant; tags: His6-MBP or GST tag, TEV-cleavable (cleaved when necessary); label: FAM; 5' overhang 1 nt on both strands (as m5)
pKd: −log10 of the molar value.

binder | pKd
m12 (G9A) (dsDNA) DNA 1: CTTTCTCTATTTTGTC DNA 2: GGACAAAATAGAGAAA | 5.35

The measurements presented in this section are drawn from paper PMC7105484.
